Where a SMILES comes first, the peptide text is derived from it.
Would you mind sorting the entries by logP according to these classes? interval 1 (below 1), interval 2 (1 to below 2), interval 3 (2 or more)

Request: Note: place this compound into its band. Item: OCCNc1ncnc2c1ncn2C1OC(CO)C(O)C1O (stereo not given)
Result: interval 1

Request: Band for the recorded logP of COc1cc(OC)c2c(c1)OC(c1ccc(OC)c(OC)c1)C(OC)C2 (stereo not given) ?
Result: interval 3

Request: The entry to classify is "Cc1[nH]c2ccccc2c1Cc1n[nH]c(=S)n1-c1ccccc1" ; which class holds it?
Result: interval 3

Request: Hello team, could you let me know which band the following compound falls into: "O=c1cc(CBr)oc(Br)c1O"
Result: interval 2

Request: Which category fits this record: "CC(C)NC(=NC#N)NS(=O)(=O)c1cnccc1NC1CCCCC1"
Result: interval 2

Request: Which category does the recorded logP put CCCCCNc1ncnc2c1ncn2C1OC(CO)C(O)C1O (stereo not given) in?
Result: interval 2

Request: For this compound, which bin applies? "CC[C@H](C)C(=O)O[C@H]1C[C@H](O)C=C2C=C[C@H](C)[C@H](CC[C@@H](O)C[C@@H](O)CC(=O)O)[C@H]21"
Result: interval 3

Request: Lab note: which band did "O=c1c2c(nc3n1CCC3)CCC2" land in?
Result: interval 1

Request: Field: class (logP) — entry: Cc1cc(C)cc(OCC2CN=C(N)O2)c1 (stereo not given)
Result: interval 3

Request: Categorize the following entry: "Cc1nc2ccccc2c(=O)n1CC(=O)NCc1ccccc1"
Result: interval 2

Request: Exercise: read the entry "CC(C)(CO)N=O" and state which class it falls under.
Result: interval 1

Request: Sort into band: "NC(=O)Cc1ccc(O)cc1"
Result: interval 1

Request: Any idea which band O=C1C(O)N=C(c2ccccc2)c2cc(Cl)ccc2N1CCO (stereo not given) is in?
Result: interval 2

Request: Returns: class label. Input: "COc1ccc(C(=O)NN=Cc2c(CO)ccc(C)c2O)cc1"
Result: interval 3

Request: Band assignment needed for CC#CC(O)c1c(C)nc2c3c(c(C(=O)N(C)C)cn12)CCC(c1ccccc1)O3 (stereo not given) please.
Result: interval 3

Request: # bin label for CCCN(CCCCC(NC(C)=O)C(=O)NCc1ccccc1)C(=O)NCCCl (stereo not given)
Result: interval 2

Request: Where would "Cc1ccc([N+](=O)[O-])c(C(=O)O)c1" land among the classes by reported logP?
Result: interval 2

Request: Entry CC12CCC(c3c1ssc3=S)C2(C)C (stereo not given) belongs to which category?
Result: interval 3

Request: Quick check: band for CCC(C)C(NC(=O)C(Cc1ccccc1)NC(=O)C(CCSC)NC(=O)C(N)C(C)C)C(=O)O (stereo not given) (H-VMFI-OH; configuration not given here)
Result: interval 1
